Test system: HeLa Kyoto;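 also: synchronized HeLa Kyoto cells, proteins quantified by TMT10plex mass spectrometry, three biological replicates, mitosis taken 0.5 h after nocodazole release, G1/S directly after double thymidine block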
Experiment: thermal stability score vs G1/S (z-score of summed log2 fold changes over temperatures); higher = more thermally stable than in G1/S
Details: cell cycle stage: mitosis
So I've got a bunch of sequences here, and I need their thermal stability score values.
One number for each entry.

// below: answered sequences
Biopolymer Sequence	thermal stability score
MEEIYAKFVSQKISKTRWRPLPPGSLQTAETFATGSWDNEENYISLWSIGDFGNLDSDGGFEGDHQLLCDIRHHGDVMDLQFFDQERIVAASSTGCVTVFLHHPNNQTLSVNQQWTTAHYHTGPGSPSYSSAPCTGVVCNNPEIVTVGEDGRINLFRADHKEAVRTIDNADSSTLHAVTFLRTPEILTVNSIGQLKIWDFRQQGNEPSQILSLTGDRVPLHCVDRHPNQQHVVATGGQDGMLSIWDVRQGTMPVSLLKAHEAEMWEVHFHPSNPEHLFTCSEDGSLWHWDASTDVPEKSSLFHQGGRSSTFLSHSISNQANVHQSVISSWLSTDPAKDRIEITSLLPSRSLSVNTLDVLGPCLVCGTDAEAIYVTRHLFS [NUP43]	-3.31
MNGRADFREPNAEVPRPIPHIGPDYIPTEEERRVFAECNDESFWFRSVPLAATSMLITQGLISKGILSSHPKYGSIPKLILACIMGYFAGKLSYVKTCQEKFKKLENSPLGEALRSGQARRSSPPGHYYQKSKYDSSVSGQSSFVTSPAADNIEMLPHYEPIPFSSSMNESAPTGITDHIVQGPDPNLEESPKRKNITYEELRNKNRESYEVSLTQKTDPSVRPMHERVPKKEVKVNKYGDTWDE [OCIAD1]	-4.47
MADIIARLREDGIQKRVIQEGRGELPDFQDGTKATFHYRTLHSDDEGTVLDDSRARGKPMELIIGKKFKLPVWETIVCTMREGEIAQFLCDIKHVVLYPLVAKSLRNIAVGKDPLEGQRHCCGVAQMREHSSLGHADLDALQQNPQPLIFHMEMLKVESPGTYQQDPWAMTDEEKAKAVPLIHQEGNRLYREGHVKEAAAKYYDAIACLKNLQMKEQPGSPEWIQLDQQITPLLLNYCQCKLVVEEYYEVLDHCSSILNKYDDNVKAYFKRGKAHAAVWNAQEAQADFAKVLELDPALAPVVSRELRALEARIRQKDEEDKARFRGIFSH [AIP]	1.52
MFKVIQRSVGPASLSLLTFKVYAAPKKDSPPKNSVKVDELSLYSVPEGQSKYVEEARSQLEESISQLRHYCEPYTTWCQETYSQTKPKMQSLVQWGLDSYDYLQNAPPGFFPRLGVIGFAGLIGLLLARGSKIKKLVYPPGFMGLAASLYYPQQAIVFAQVSGERLYDWGLRGYIVIEDLWKENFQKPGNVKNSPGTK [APOO]	-2.5
MGLTISSLFSRLFGKKQMRILMVGLDAAGKTTILYKLKLGEIVTTIPTIGFNVETVEYKNICFTVWDVGGQDRIRPLWKHYFQNTQGLIFVVDSNDRERIQEVADELQKMLLVDELRDAVLLLFANKQDLPNAMAISEMTDKLGLQSLRNRTWYVQATCATQGTGLYEGLDWLSNELSKR [ARF4]	6.18

Sample MAKQKRKVPEVTEKKNKKLKKASAEGPLLGPEAAPSGEGAGSKGEAVLRPGLDAEPELSPEEQRVLERKLKKERKKEERQRLREAGLVAQHPPARRSGAELALDYLCRWAQKHKNWRFQKTRQTWLLLHMYDSDKVPDEHFSTLLAYLEGLQGRARELTVQKAEALMRELDEEGSDPPLPGRAQRIRQVLQLLS [C7ORF50] — what was its thermal stability score? 0.494
